# System: Programmed cell death 1 ligand 1 (Homo sapiens), Q9NZQ7 [UNDEFINED MUTATION]
# Sequence (Q9NZQ7 whole entry, looked up, stated change not applied, the tested form may be a part): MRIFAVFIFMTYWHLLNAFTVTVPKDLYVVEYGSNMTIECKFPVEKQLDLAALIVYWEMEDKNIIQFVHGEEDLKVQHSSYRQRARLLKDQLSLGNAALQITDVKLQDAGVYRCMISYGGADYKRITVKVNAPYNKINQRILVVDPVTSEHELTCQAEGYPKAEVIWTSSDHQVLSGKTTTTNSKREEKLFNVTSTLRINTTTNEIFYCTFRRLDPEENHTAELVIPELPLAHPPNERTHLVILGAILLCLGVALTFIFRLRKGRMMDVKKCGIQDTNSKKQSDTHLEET
# assayNotes: Displacement of 15N-labelled PD1 from human 15N-labelled 6His-tagged PDL1 IgV domain H140E mutant (18 to 134 residues) at 800 uM assessed as rescue signal intensity by HMQC spectra analysis
Examples of compounds with documented Activity follow.

// below: answered compounds
smilesrepresentation=Cc1sc(N)nc1-c1ccc2c(c1)OCCO2 observed="> 15%"
smilesrepresentation=CC(=O)Oc1ccc2c(c1)cc(C)n2C observed="> 15%"
smilesrepresentation=Oc1ncnc2scc(-c3ccccc3)c12 observed="> 15%"
smilesrepresentation=CCN(CC)C(=O)c1sc2ccccc2c1Cl observed="> 15%"
smilesrepresentation=Cc1cc(Nc2ccc(N3CCCC3)cc2)ncn1 observed="1 to 15%"

Give its Activity value. Item: COc1ccc2nc(NCc3cccnc3)sc2c1
1 to 15%

Give its Activity value. Item: COC(=O)c1[nH]cc(-c2ccccc2F)c1N
1 to 15%

Give its Activity value. Item: Cc1nc2cc(-c3ccccc3)ccc2o1
1 to 15%

Give its Activity value. Item: CNCc1ccc(-c2cc(Cl)cc(Cl)c2)o1
> 15%

====

# experimentalSystem: Programmed cell death 1 ligand 1 (Homo sapiens, UniProt Q9NZQ7, H140E)
# assayNotes: Binding affinity to human 15N-labelled 6His-tagged PDL1 IgV domain H140E mutant (18 to 134 residues) expressed in Escherichia coli BL21 (DE3) by 1D-1H NMR spectroscopy
# conditionSummary: read-out: Kd
Examples of compounds with documented pKd follow.
API: returns pKd as number; meaning -log10 of concentration in mol/L.

// below: answered compounds
smilesrepresentation=Cc1cc(Nc2ccc(N3CCCC3)cc2)ncn1 propertyname=pKd observed=2.52
smilesrepresentation=CNCc1ccc(-c2cc(Cl)cc(Cl)c2)o1 propertyname=pKd observed=2.72

Give its pKd value. Item: CCN(CC)C(=O)c1sc2ccccc2c1Cl
2.60

Give its pKd value. Item: COc1ccc2nc(NCc3cccnc3)sc2c1
2.54

Give its pKd value. Item: Cc1sc(N)nc1-c1ccc2c(c1)OCCO2
2.92
